TARGET: N-cadherin expressed on transfected 3T3 cells
METHOD_NOTES: cell-based or functional assay
PARAMETER: percent inhibition of neurite outgrowth, peptide at 250 µg/ml (%)

BINDER | QUANTITY_UNIT | MEASURED_RESULT
Ac-IDPVNGQ-NH2 [N-Ac-IDPVNGQ-NH2] | % | 85.6
Ac-WLKADAVNGQI-NH2 [N-Ac-WLKADAVNGQI-NH2] | % | 19.7
Ac-WLKIDPVNGQI-NH2 [N-Ac-WLKIDPVNGQI-NH2] | % | 83.5
Ac-WLKIDAVNGQI-NH2 [N-Ac-WLKIDAVNGQI-NH2] | % | 52.3
Ac-NLKIDPVNGQI-NH2 [N-Ac-NLKIDPVNGQI-NH2] | % | 86.8
Ac-WLKADPVNGQI-NH2 [N-Ac-WLKADPVNGQI-NH2] | % | 54.7
Ac-CIDPVNC-NH2 (not fully specified (bridges); printed as N-Ac-CIDPVNC-NH2; also: cyclic peptide, linkage not given here) [N-Ac-CIDPVNC-NH2] | % | 96.4
